Measured values drawn from paper doi:10.1101/2024.08.19.608619 for this set.

# reported perc_inhibition (% inhibition of the binding of a ligand specific for each target); entries follow
SUBJECT OF TEST: mu (MOP) (h) (Homo sapiens)
Construct: purchased Eurofins Cerep (SafetyScreen44), recognised from the panel format
Sequence (P35372 whole entry): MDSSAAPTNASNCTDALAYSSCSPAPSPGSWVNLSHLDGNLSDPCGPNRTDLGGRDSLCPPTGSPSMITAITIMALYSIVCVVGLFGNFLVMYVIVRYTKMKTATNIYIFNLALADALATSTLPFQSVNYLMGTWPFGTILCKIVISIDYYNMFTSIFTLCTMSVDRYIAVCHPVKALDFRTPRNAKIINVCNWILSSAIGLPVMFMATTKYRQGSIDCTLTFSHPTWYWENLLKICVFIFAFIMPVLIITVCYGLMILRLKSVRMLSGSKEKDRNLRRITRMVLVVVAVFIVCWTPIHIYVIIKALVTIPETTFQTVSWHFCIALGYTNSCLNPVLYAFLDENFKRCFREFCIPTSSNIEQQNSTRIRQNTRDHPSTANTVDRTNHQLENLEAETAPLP
ASSAY EXPLANATION: In vitro CEREP profiling, mu (MOP) (h) (agonist radioligand)
Format: binding
MEASUREMENT PARAMETERS: test compound concentration 10 uM
Give the quantity in %, number only.

[
  {
    "SMILES REPR": "CC(C)[C@H](Nc1ncnc2[nH]c(-c3cnn(C)c3C#N)cc12)c1ccc2c(n1)OCCO2",
    "VALUE OBSERVED": 15
  }
]

Specify the recorded perc_inhibition (% inhibition of the binding of a ligand specific for each target) for "CC(C)[C@H](Nc1ncnc2[nH]ccc12)c1ccc2c(c1)S(=O)(=O)CCC2" , system: mu (MOP) (h) (Homo sapiens).
8

Specify the recorded perc_inhibition (% inhibition of the binding of a ligand specific for each target) for "Cn1ncc(-c2cc3c(N[C@@H](c4ccc5c(n4)OCCO5)C(C)(C)C)ncnc3[nH]2)c1C#N" , system: mu (MOP) (h) (Homo sapiens).
28

----------
ASSAY EXPLANATION: Hepatic microsomal stability, HLM
Format: in vitro ADME, human
MEASUREMENT PARAMETERS: In vitro human liver microsomal stability; no cofactor
ASSAY METRIC: perc_remaining_no_cofactor (%)
Give the quantity in %, number only.

State, in one line, measured perc_remaining_no_cofactor of CC(C)(C)[C@H](Nc1ncnc2[nH]c(-c3cnn(CC(N)=O)c3)cc12)c1ccc2c(c1)OCCO2 (single isomer, unassigned) [ASAP-0012330]
100.0

State, in one line, measured perc_remaining_no_cofactor of CNC(=O)c1c[nH]c2ncnc(N[C@H](c3ccc4c(c3)S(=O)(=O)CCC4)C(C)C)c12 (racemic) [ASAP-0008641]
104.0

State, in one line, measured perc_remaining_no_cofactor of CC(C)[C@H](Nc1ncnc2[nH]ccc12)c1ccc2c(c1)NC(=O)CO2 [ASAP-0008430]
95.0

----------
ASSAY EXPLANATION: Hepatic microsomal stability, HLM
Assay type: in vitro ADME, human
MEASUREMENT PARAMETERS: In vitro human liver microsomal stability
Please respond with 1 (yes) when measured perc_remaining is strictly beneath 10%, and with 0 (no) in all other cases.

Example cases with answers are listed next.
[
  {
    "MOLECULE": "CC(C)[C@H](Nc1ncnc2[nH]cc(C(=O)NC3CC3)c12)c1ccc2c(c1)S(=O)(=O)CCC2 (single isomer, unassigned) [ASAP-0011247]",
    "ASSIGNED CLASS": "0 (no)"
  },
  {
    "MOLECULE": "CCNC(=O)c1cc2c(N[C@@H](c3ccc4c(c3)S(=O)(=O)CCO4)C(C)C)ncnc2[nH]1 (racemic)",
    "ASSIGNED CLASS": "0 (no)"
  },
  {
    "MOLECULE": "COc1ccc2c(c1)CCN(c1ncnc3[nH]ccc13)[C@H]2C(C)C (racemic)",
    "ASSIGNED CLASS": "0 (no)"
  },
  {
    "MOLECULE": "CNC(=O)c1c[nH]c2ncnc(N[C@H](c3ccc4c(c3)S(=O)(=O)CCC4)C(C)C)c12 (racemic) [ASAP-0008641]",
    "ASSIGNED CLASS": "0 (no)"
  }
]

Quick check: does CNCc1cc(-c2cc3c(N[C@@H](c4ccc5c(c4)S(=O)(=O)CCC5)C(C)C)ncnc3[nH]2)co1 [ASAP-0010745] have perc_remaining under 10%?
0 (no)

Quick check: does CC(C)[C@@H](Nc1ncnc2[nH]c(-c3cnn(C)c3C#N)cc12)c1ccc2c(c1)S(=O)(=O)CCC2 [ASAP-0008651] have perc_remaining under 10%?
1 (yes)

Quick check: does COCCNC(=O)c1c[nH]c2ncnc(N[C@H](c3ccc4c(c3)S(=O)(=O)CCC4)C(C)C)c12 (racemic) have perc_remaining under 10%?
1 (yes)

----------
Tested on: SARS-CoV-2, isolate USA-WA1/2020
ASSAY EXPLANATION: microbe, parasite or virus in culture
Assay type: cell-based
MEASUREMENT PARAMETERS: Severe acute respiratory syndrome coronavirus 2, HeLa-ACE2
ASSAY METRIC: EC50

[
  {
    "COMPOUND": "CC(C)C(Nc1ncnc2[nH]c(C(=O)NC3CCN(C)C3)cc12)c1ccc2c(c1)S(=O)(=O)CCC2 (stereo not drawn)",
    "ASSAY METRIC": "EC50",
    "VALUE OBSERVED": "> 20 µM"
  },
  {
    "COMPOUND": "Cc1nn(C)cc1-c1cc2c(NC(c3ccc4c(c3)S(=O)(=O)CCC4)C(C)C)ncnc2[nH]1 (stereo not drawn)",
    "ASSAY METRIC": "EC50",
    "VALUE OBSERVED": "> 20 µM"
  }
]

Turning now to a further compound:
State, in one line, measured EC50 of CCNC(=O)c1cc2c(NC(c3ccc4c(c3)OCCO4)C(C)C)ncnc2[nH]1 (stereo not drawn)
> 20 µM

----------
ASSAY EXPLANATION: Hepatic microsomal stability, HLM
Type: in vitro ADME, human
MEASUREMENT PARAMETERS: In vitro human liver microsomal stability
# reported clint; entries follow
Give the quantity in µL/min/mg, number only.

Example results:
[
  {
    "COMPOUND": "CNC(=O)Cn1cc(-c2cc3c(N[C@H](c4ccc5c(c4)S(=O)(=O)CCC5)C(C)C)ncnc3[nH]2)cn1 (single isomer, unassigned)",
    "VALUE OBSERVED": 92.0
  },
  {
    "COMPOUND": "CC(C)[C@@H](Nc1ncnc2[nH]c(-c3cnn(C)c3C#N)cc12)c1ccc2c(c1)OCCO2 [ASAP-0011033]",
    "VALUE OBSERVED": 47.0
  },
  {
    "COMPOUND": "CNC(=O)c1cc2c(N[C@@H](c3ccc4c(c3)OCCO4)C(C)C)ncnc2[nH]1",
    "VALUE OBSERVED": 79.0
  }
]

State, in one line, measured clint of COCCNC(=O)c1c[nH]c2ncnc(N[C@H](c3ccc4c(c3)S(=O)(=O)CCC4)C(C)C)c12 (racemic)
540.0

State, in one line, measured clint of CC(C)[C@H](Nc1ncnc2[nH]c(-c3cnn(CC(N)=O)c3)cc12)c1ccc2c(c1)S(=O)(=O)CCC2 (racemic) [ASAP-0008679]
116.0

State, in one line, measured clint of CC(C)[C@H](Nc1ncnc2[nH]cc(C(=O)NC3CC3)c12)c1ccc2c(c1)S(=O)(=O)CCC2 (racemic) [ASAP-0008647]
29.0

State, in one line, measured clint of "CNC(=O)c1c[nH]c2ncnc(N[C@@H](c3ccc4c(c3)OCCO4)C(C)C)c12"
79.0

State, in one line, measured clint of CCNC(=O)c1cc2c(N[C@H](c3ccc4c(c3)S(=O)(=O)CCC4)C(C)C)ncnc2[nH]1 (racemic) [ASAP-0008711]
108.0

----------
System: CYP
ASSAY EXPLANATION: CYP inhibition
Type: in vitro ADME
MEASUREMENT PARAMETERS: isoform 3A4; In vitro CYP inhibition pooled
# reported pIC50; entries follow
// pIC50: -log10(molar conc.)

[
  {
    "SMILES REPR": "Cn1ncc(-c2cc3c(N[C@@H](c4ccc5c(n4)OCCO5)C(C)(C)C)ncnc3[nH]2)c1C#N",
    "ASSAY METRIC": "pIC50",
    "VALUE OBSERVED": 5.06
  }
]

Turning now to a further molecule:
State, in one line, measured pIC50 of "COc1ccc([C@H](Cc2nnn[nH]2)NC(=O)c2ncnc3[nH]ccc23)cc1"
4.60

----------
ASSAY EXPLANATION: Protein binding
Assay type: in vitro ADME
MEASUREMENT PARAMETERS: In vitro rat plasma protein binding
ASSAY METRIC: perc_bound (%)
Give the quantity in %, number only.

Example results:
[
  {
    "MOLECULE": "Cn1ncc(-c2cc3c(N[C@@H](c4ccc5c(n4)OCCO5)C(C)(C)C)ncnc3[nH]2)c1C#N [ASAP-0011221]",
    "UNIT NAME": "%",
    "perc_bound": 98.2
  },
  {
    "MOLECULE": "CC(C)[C@H](Nc1ncnc2[nH]c(-c3cnn(C)c3C#N)cc12)c1ccc2c(n1)OCCO2 [ASAP-0010715]",
    "UNIT NAME": "%",
    "perc_bound": 98.0
  },
  {
    "MOLECULE": "CC(C)[C@@H](Nc1ncnc2[nH]c(-c3cnn(C)c3C#N)cc12)c1ccc2c(n1)OCCO2 [ASAP-0010716]",
    "UNIT NAME": "%",
    "perc_bound": 97.8
  }
]

State, in one line, measured perc_bound of C[C@H](C(=O)O)[C@@H](NC(=O)c1ncnc2[nH]ccc12)c1ccc(Br)cc1 [ASAP-0014722]
95.6

State, in one line, measured perc_bound of COc1ccc([C@H](Cc2nnn[nH]2)NC(=O)c2ncnc3[nH]ccc23)cc1 [ASAP-0015381]
95.3

State, in one line, measured perc_bound of CNCc1cc(-c2cc3c(N[C@@H](c4ccc5c(c4)S(=O)(=O)CCC5)C(C)C)ncnc3[nH]2)co1 [ASAP-0011176]
92.8

State, in one line, measured perc_bound of CC(C)[C@H](Nc1ncnc2[nH]ccc12)c1ccc2c(c1)S(=O)(=O)CCC2 [ASAP-0008674]
81.1
